- TESTED ON: HeLa cell extract proteins (Homo sapiens)
- Construct: endogenous in cells; host or cells: HeLa cell extract
- Sequence (P05387 whole entry): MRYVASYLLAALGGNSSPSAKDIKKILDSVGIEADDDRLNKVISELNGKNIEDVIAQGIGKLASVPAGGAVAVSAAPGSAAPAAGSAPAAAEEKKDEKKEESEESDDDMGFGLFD
- Assay type: binding
- MEASUREMENT CONTEXT: protein RPLP2; HeLa
ATTRIBUTE MEASURED: fold changes relative to vehicle control

[[record]]
compound = "CCCCCCOc1cccc(Cc2cnc(N)nc2N)c1 [compound 2]"
tested_on = "HeLa cell extract proteins (Homo sapiens)"
quantitative_result = 1.65

[[record]]
compound = "NCCOCCOCC(=O)Nc1nc2ncc(CNc3ccc(C(=O)NC(CCC(=O)O)C(=O)O)cc3)nc2c(=O)[nH]1 (stereo not drawn) [compound 6]"
tested_on = "HeLa cell extract proteins (Homo sapiens)"
quantitative_result = 1.04

[[record]]
compound = "NCCCNc1ccc(C(=O)NC(CCC(=O)O)C(=O)O)cc1 (stereo not drawn) [compound 7]"
tested_on = "HeLa cell extract proteins (Homo sapiens)"
quantitative_result = 0.82

[[record]]
compound = "CCCCCCOc1ccc(Cc2cnc(N)nc2N)cc1 [compound 1]"
tested_on = "HeLa cell extract proteins (Homo sapiens)"
quantitative_result = 0.76

[[record]]
compound = "Nc1nc2c(c(=O)[nH]1)N(C=O)C(CNc1ccc(C(=O)N[C@@H](CCC(=O)O)C(=O)O)cc1)CN2 (stereo partly drawn) [LEU, leucovorin]"
tested_on = "HeLa cell extract proteins (Homo sapiens)"
quantitative_result = 0.82

[[record]]
compound = "Nc1nc2cccc(-c3ccccc3)c2n1Cc1ccc(Cl)c(Cl)c1 [compound 3]"
tested_on = "HeLa cell extract proteins (Homo sapiens)"
quantitative_result = 0.81

